From: PubChem BioAssay (Tox21)

Molecular target: Acetylcholinesterase (Homo sapiens) (UniProt P22303)
Sequence (P22303 whole entry, looked up): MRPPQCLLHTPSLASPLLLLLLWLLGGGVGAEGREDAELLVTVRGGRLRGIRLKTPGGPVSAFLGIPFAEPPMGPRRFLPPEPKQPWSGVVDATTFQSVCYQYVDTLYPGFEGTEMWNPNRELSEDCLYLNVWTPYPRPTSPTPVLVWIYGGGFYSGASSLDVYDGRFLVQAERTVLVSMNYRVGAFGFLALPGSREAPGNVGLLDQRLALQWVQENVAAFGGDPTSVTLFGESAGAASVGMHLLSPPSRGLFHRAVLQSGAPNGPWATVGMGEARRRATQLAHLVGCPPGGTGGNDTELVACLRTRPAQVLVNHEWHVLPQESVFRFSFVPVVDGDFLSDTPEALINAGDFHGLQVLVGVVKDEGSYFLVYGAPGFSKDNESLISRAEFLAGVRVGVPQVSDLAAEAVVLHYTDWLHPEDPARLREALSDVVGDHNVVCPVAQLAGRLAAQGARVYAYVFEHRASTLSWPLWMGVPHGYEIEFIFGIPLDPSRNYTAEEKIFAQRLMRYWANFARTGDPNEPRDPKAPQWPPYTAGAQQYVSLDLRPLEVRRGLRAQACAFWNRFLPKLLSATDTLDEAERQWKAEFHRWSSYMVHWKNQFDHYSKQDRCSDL
Experiment: Acetylcholinesterase (AChE) small molecule antagonists: colormetric cell-based qHTS assay (AID 1347395); further: on the % scale 0 is the no-effect control and ±100 the full control effect; nearly all actives have a fitted effect of over 30% in size
Details: SH-SY5Y cells AChE activity, colorimetric (Ellman); series mostly up to 115 µM
Text: National Center for Advancing Translational Sciences [NCATS] Division of Preclinical Innovation [DPI] U.S. Environmental Protection Agency [EPA] National Institutes of Environmental Health Sciences [NIEHS] National Toxicology Program [NTP] U.S. Food and Drug Administration [FDA] Acetylcholinesterase (AChE) is the primary cholinesterase in the body that hydrolyzes a key neurotransmitter, acetylcholine. Inhibition of AChE activity can lead to neurotoxicity. […]
Results filed as inconclusive are left out. Calls of active or inactive are those of the source. The call rests on the fitted dose curve.
READOUT_NAME: activity, negative = inhibition

COMPOUND	ENDPOINT_RESULT
CCCCCCCCCCCCCC=O	1.02% [at 10.5 µM] (inactive)
O=S(=O)(O)c1ccc2c(N=Nc3ccc(S(=O)(=O)O)c4ccccc34)c(O)c(S(=O)(=O)O)cc2c1	-0.661% [at 10.5 µM] (inactive)
CCCCCCCCCCCCCCN(C)C	0.601% [at 23.6 µM] (inactive)
CCCCCCCCCCCCCCCCCl	0.0979% [at 23.6 µM] (inactive)
C[C@@H]1CN(c2c(F)c(F)c3c(=O)c(C(=O)O)cn(C4CC4)c3c2F)C[C@H](C)N1	-2.8% [at 23.6 µM] (inactive)
O=C(CCN1CCN2CCCC2C1)N1c2ccccc2Sc2ccc(Cl)cc21 (centres undefined)	0% [at 23.6 µM] (inactive)
CCCC(=O)O[C@]1(C(=O)COC(=O)CC)CC[C@H]2[C@@H]3CCC4=CC(=O)CC[C@]4(C)[C@H]3[C@@H](O)C[C@@]21C	0.0881% [at 23.6 µM] (inactive)
C[C@@H](O)[C@H](N)C(=O)O	2.29% [at 23.6 µM] (inactive)
Cc1cc(=O)c2c(O)c3c(O)cc(=O)c4c3c3c(cc(O)c1c23)C(C)(C)C=4O	0.337% [at 23.6 µM] (inactive)
COc1cc(C(C)C)ccc1C	0.291% [at 23.6 µM] (inactive)
CC(C)Cn1cnc2c(N)nc3ccccc3c21	-1.3% [at 23.6 µM] (inactive)
C=CC(=C)CC/C=C(\C)CCC=C(C)C	-2.99% [at 23.6 µM] (inactive)
CCCCN1C=CN(C)C1	0.291% [at 23.6 µM] (inactive)
CCCCCCCCCCCCS(=O)(=O)Cl	-0.822% [at 23.6 µM] (inactive)
N=C(N)N1CCc2ccccc2C1	3.08% [at 10.5 µM] (inactive)
CCCCCCCCCCCCCCCCCO	0.97% [at 23.6 µM] (inactive)
CC(CSC(=O)c1ccccc1)C(=O)N1C[C@@H](Sc2ccccc2)C[C@H]1C(=O)O (some centres undefined)	0.861% [at 23.6 µM] (inactive)
C=CCCCCCCCCCCC	-0.0098% [at 10.5 µM] (inactive)
CCCCCCCCCCCCCCCCN(C)C	-4.82% [at 10.5 µM] (inactive)
CN1CCN(CC(=O)N2c3ccccc3C(=O)Nc3cccnc32)CC1	0.44% [at 10.5 µM] (inactive)
O=C(O)c1ccc2c(c1)nc(C(=O)NC1CCN(C3CC3)CC1)n2Cc1cc(-c2ccc(Cl)s2)on1	-6.96% [at 23.6 µM] (inactive)
CCC(C)S (centres undefined)	1.56% [at 4.07 µM] (inactive)
NCC(=O)O	0.505% [at 23.6 µM] (inactive)
C/C=C/C(=O)CC	0.402% [at 23.6 µM] (inactive)
NCCCNCCSP(=O)(O)O	2.88% [at 10.5 µM] (inactive)
[O]=[Mo](=[O])=[O]	2.74% [at 23.6 µM] (inactive)
NC(Cc1ccc(Cl)cc1)C(=O)O (centres undefined)	1.17% [at 0.435 µM] (inactive)
S=C(SSSSSSC(=S)N1CCCCC1)N1CCCCC1	-0.568% [at 23.6 µM] (inactive)
COC(=O)C1CC(=O)C(C(=O)OC)CC1=O (centres undefined)	2.2% [at 10.5 µM] (inactive)
